Source: ChEMBL document CHEMBL4725220

# assaySystem: Inhibitor of nuclear factor kappa-B kinase subunit beta (Homo sapiens)
# Sequence (O14920 whole entry): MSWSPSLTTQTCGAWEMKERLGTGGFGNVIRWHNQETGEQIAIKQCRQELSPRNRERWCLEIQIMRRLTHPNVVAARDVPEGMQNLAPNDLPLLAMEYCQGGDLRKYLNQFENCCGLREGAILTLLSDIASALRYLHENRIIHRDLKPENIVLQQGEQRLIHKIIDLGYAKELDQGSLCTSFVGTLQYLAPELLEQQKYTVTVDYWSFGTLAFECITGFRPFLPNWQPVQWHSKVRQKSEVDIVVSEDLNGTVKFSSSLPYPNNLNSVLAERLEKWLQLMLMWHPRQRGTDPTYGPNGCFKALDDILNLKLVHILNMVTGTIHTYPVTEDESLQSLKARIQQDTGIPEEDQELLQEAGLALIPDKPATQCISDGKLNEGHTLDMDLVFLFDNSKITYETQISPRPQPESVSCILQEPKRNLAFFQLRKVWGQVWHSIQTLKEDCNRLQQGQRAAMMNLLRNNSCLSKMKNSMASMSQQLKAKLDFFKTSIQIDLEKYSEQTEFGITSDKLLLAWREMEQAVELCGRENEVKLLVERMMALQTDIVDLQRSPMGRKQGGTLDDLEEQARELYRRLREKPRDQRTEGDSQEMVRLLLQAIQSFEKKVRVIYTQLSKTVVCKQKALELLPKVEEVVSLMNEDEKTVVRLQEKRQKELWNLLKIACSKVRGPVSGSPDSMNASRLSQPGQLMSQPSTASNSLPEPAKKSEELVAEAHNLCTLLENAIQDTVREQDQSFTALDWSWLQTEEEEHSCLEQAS
# experimentSummary: Inhibition of IKKbeta (unknown origin) assessed as substrate phosphorylation using IkappaBalpha as substrate incubated for 1 hr in presence of ATP by chip-based fluorescence assay
pIC50: −log10 of the molar value.
endpoint: pIC50

Example cases with answers are listed next.
| smilesEntry | pIC50 |
| --- | --- |
| O=C(O)C1=CC(=C(c2ccc(O)c(C(=O)O)c2)c2ccc(O)c(C(=O)O)c2)C=CC1=O | 5.27 |
| O=C1C=C2C[C@]3(O)COc4c(ccc(O)c4O)C3=C2C=C1O | 5.66 |

I: O=c1oc2c(O)c(O)cc3c(=O)oc4c(O)c(O)cc1c4c23
II: COc1ccc(-c2cc(=O)c3c(O)cc(O[C@@H]4O[C@H](CO[C@@H]5O[C@@H](C)[C@H](O)[C@@H](O)[C@H]5O)[C@@H](O)[C@H](O)[C@H]4O)cc3o2)cc1O
III: O=C(c1ccc(Nc2nccc(-c3cc4ccccc4s3)n2)cc1)N1CCC(N2CCCC2)CC1
Rank items: key pIC50, increasing. Return value: ordered labels per request. III, II, I
(III: 5.19, II: 5.41, I: 5.70)
